system: Bacillus subtilis; assay: Antibacterial activity against Bacillus subtilis ATCC 6633; type: functional
observable: log10 of MIC (log10 of the value in µg/mL)
Base-10 log of MIC, unit µg/mL.

-- ask Give a short answer stating reported log10 of MIC for CC1(C)S[C@@H]2[C@H](NC(=O)[C@H](N)c3ccccc3)C(=O)N2[C@H]1C(=O)O [AMPICILLIN] .
-- reply 0.19

-- ask Give a short answer stating reported log10 of MIC for O=C1C(NC2Cc3cc(Br)c(O)cc3S2)=CC2=NCCc3c[nH]c1c32 (stereo unspecified) [MAKALUVAMINE F] .
-- reply 1.10

-- ask Give a short answer stating reported log10 of MIC for O=C1C(Br)=CC2(C=C1Br)CCNC1=C2C2=NCCc3c[nH]c(c32)C1=O [DISCORHABDIN C] .
-- reply 1.40

-- ask Give a short answer stating reported log10 of MIC for O=C1C2=C3C4=[N+](CCc5c[nH]c1c54)C1C[C@@]34C[C@@H](N2)SC4=CC1=O .
-- reply 1.40

-- ask Give a short answer stating reported log10 of MIC for O=C1C=C2S[C@H]3C[C@]2(C=C1Br)C1=C(N3)C(=O)c2[nH]cc3c2C1=NCC3 [(+)-DISCORHABDIN B] .
-- reply 1.10

-- ask Give a short answer stating reported log10 of MIC for O=C1C=C[C@@]23C[C@@H](NC4=C2C2=NCCc5c[nH]c(c52)C4=O)SC3=C1 [1-DEBROMODISCORHABDIN B] .
-- reply 1.10

-- ask Give a short answer stating reported log10 of MIC for O=C1C=C[C@]2(C=C1Br)CCNC1=C2C2=NCCc3c[nH]c(c32)C1=O .
-- reply 1.70

-- ask Give a short answer stating reported log10 of MIC for O=C1C(NCCc2ccc(O)cc2)=CC2=NCCc3c[nH]c1c32 [MAKALUVAMINE D] .
-- reply 1.40

-- ask Give a short answer stating reported log10 of MIC for O=C1C2=C3C4=[N+](CCc5c[nH]c1c54)C1[C@H](O)C=C4S[C@@H](C[C@@]43[C@H]1O)N2 .
-- reply 2.00

-- ask Give a short answer stating reported log10 of MIC for O=C1C2=C3C4=[N+](CCc5c[nH]c1c54)C1C(=O)C=C4S[C@@H](C[C@@]43[C@H]1O)N2 .
-- reply 1.40

* * *

molecular target: Sortase A (Staphylococcus aureus, UniProt Q9S446); test: Inhibition of Staphylococcus aureus sortase A after 1 hr in the presence of fluorescent peptide Dabcul-QALPETGEE-Edans by fluorimetry
Sequence (Q9S446 whole entry): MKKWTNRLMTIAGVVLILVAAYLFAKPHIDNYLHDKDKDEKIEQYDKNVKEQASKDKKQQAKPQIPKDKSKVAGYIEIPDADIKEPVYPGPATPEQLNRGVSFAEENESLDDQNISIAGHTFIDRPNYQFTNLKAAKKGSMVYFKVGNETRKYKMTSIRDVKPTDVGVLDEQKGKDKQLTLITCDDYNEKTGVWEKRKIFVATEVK
pIC50: −log10 of the molar value.
Classify by measured pIC50: met if it is equal to or exceeds 4, not met if it is smaller.

-- ask Kindly determine if pIC50 recorded for O=C1C(NCCc2ccc(O)cc2)=CC2=NCCc3c[nH]c1c32 is above or exactly 4.
-- reply not met

-- ask Kindly determine if pIC50 recorded for O=C1C2=C3C4=[N+](CCc5c[nH]c1c54)C1[C@H](O)C=C4S[C@@H](C[C@@]43[C@H]1O)N2 is above or exactly 4.
-- reply not met

-- ask Kindly determine if pIC50 recorded for O=C1C(NC2Cc3cc(Br)c(O)cc3S2)=CC2=NCCc3c[nH]c1c32 (stereo not drawn) is above or exactly 4.
-- reply not met

-- ask Kindly determine if pIC50 recorded for O=C1C=C[C@@]23C[C@@H](NC4=C2C2=NCCc5c[nH]c(c52)C4=O)SC3=C1 is above or exactly 4.
-- reply not met

-- ask Kindly determine if pIC50 recorded for O=C1C2=C3C4=[N+](CCc5c[nH]c1c54)C1[C@H](O)CC(=O)[C@@]3(C[C@@H](O)N2)[C@H]1O is above or exactly 4.
-- reply met

-- ask Kindly determine if pIC50 recorded for O=C1C2=C3C4=[N+](CCc5c[nH]c1c54)C1C[C@@]34C[C@@H](N2)SC4=C[C@H]1O is above or exactly 4.
-- reply met
